Cited source for all entries: patent US6235516A

System: AcR5b-acylase
experimental_protocol: Stability of the AcR5b-acylase during freezing, with and without cryoprotective agents
Assay type: physicochemical, Arthrobacter aurescens AcR5b
condition: AcR5b-acylase frozen 9 days at -20° C. with the cryoprotective agent of the label (label AcR5b-acylase = none)
readout: Relative activity (%)

OCC(O)CO [50% Glycerol, Glycerol]    98
N.N.O=S(=O)(O)O    81
OCC(O)CO [5% Glycerol, Glycerol]    89
OC[C@H]1O[C@@](CO)(O[C@H]2O[C@H](CO)[C@@H](O)[C@H](O)[C@H]2O)[C@@H](O)[C@@H]1O    100

* * *

Test system: Rhodococcus globerulus K1/1 acylase
Type: biochemical
condition: compound 10 mM; none = 100
readout: Relative activity (%)
Answer format: numeric, % implied, no suffix.

OCCS    101
[Cl-].[Cl-].[Zn+2]    0

For the compound NC(=O)CI [Iodoacetamide] , give its reported Relative activity (%).
67

For the compound [Ca+2].[Cl-].[Cl-] , give its reported Relative activity (%).
85
